Data provenance is the Human Domainome abundance scans (Beltran et al. 2025).

B1: Intersectin-1, residues 909 to 971; numbered along this chain, Q15811 (parent)
chain: QGEKVEGLQAQALYPWRAKKDNHLNFNKNDVITVLEQQDMWWFGEVQGQKGWFPKSYVKLISG

- Variants of: B1
- Test Details: abundance fitness (aPCA) (normalised: wild type 0, dead -1); higher = more abundant; growth selection in yeast, the domain comes from the species named
- Condition Label: Homo sapiens
Entries are grouped by abundance fitness into these classes: low end (below -0.3), middle (-0.3 to below -0.08), high end (-0.08 or more)

Use the examples below as a reference point.
Sequence	Assigned Label
VGEKVEGLQAQALYPWRAKKDNHLNFNKNDVITVLEQQDMWWFGEVQGQKGWFPKSYVKLISG	high end
QGEKVEGLCAQALYPWRAKKDNHLNFNKNDVITVLEQQDMWWFGEVQGQKGWFPKSYVKLISG	middle

Now look at this entry.
Which class does "QGEKVEGLQAQALYPWRAEKDNHLNFNKNDVITVLEQQDMWWFGEVQGQKGWFPKSYVKLISG" fall in?
high end
